# assayed-target: human β1-adrenergic receptor (Homo sapiens)
# Sequence (P08588 whole entry): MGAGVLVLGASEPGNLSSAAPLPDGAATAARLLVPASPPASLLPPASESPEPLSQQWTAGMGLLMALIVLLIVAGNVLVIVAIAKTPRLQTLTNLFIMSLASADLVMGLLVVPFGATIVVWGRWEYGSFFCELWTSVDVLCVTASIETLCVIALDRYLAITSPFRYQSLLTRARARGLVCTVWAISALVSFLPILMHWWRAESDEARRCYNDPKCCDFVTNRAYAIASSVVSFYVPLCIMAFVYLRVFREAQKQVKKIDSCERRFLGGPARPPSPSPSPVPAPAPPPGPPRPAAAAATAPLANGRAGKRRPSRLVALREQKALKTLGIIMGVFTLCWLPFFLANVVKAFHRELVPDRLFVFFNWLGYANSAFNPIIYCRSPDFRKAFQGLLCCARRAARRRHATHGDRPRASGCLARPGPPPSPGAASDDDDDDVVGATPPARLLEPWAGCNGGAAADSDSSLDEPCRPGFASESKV
# test-name: binding to human β1-adrenergic receptor (competition curves)
result-type: pIC50
Bear in mind: pIC50 is minus log10 of a mol/L concentration; give just that figure.

[
  {
    "compound": "COc1ccc(C[C@@H](C)NC[C@H](O)c2ccc(O)c(N)c2)cc1 [(R,R)-Desformoterol]",
    "assayed-target": "human β1-adrenergic receptor (Homo sapiens)",
    "pIC50": 5.50
  }
]

Entry COc1ccc(C[C@H](C)NC[C@@H](O)c2ccc(O)c(N)c2)cc1 [(S,S)-Desformoterol] : pIC50 on human β1-adrenergic receptor (Homo sapiens) = 4.19

----------
# assayed-target: human β2-adrenergic receptor (Homo sapiens, UniProt P07550)
# Sequence (P07550 whole entry): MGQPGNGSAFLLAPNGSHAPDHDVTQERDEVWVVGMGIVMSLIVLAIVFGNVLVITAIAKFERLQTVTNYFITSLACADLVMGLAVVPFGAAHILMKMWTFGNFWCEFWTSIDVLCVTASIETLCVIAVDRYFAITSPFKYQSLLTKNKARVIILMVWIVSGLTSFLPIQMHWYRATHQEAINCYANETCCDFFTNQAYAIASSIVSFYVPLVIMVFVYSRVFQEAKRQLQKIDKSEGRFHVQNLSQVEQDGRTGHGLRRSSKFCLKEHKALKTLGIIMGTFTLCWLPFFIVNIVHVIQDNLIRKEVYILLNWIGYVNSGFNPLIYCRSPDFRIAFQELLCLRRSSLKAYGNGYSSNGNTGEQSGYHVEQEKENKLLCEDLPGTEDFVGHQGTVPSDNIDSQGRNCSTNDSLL
# test-name: binding to human β2-adrenergic receptor (competition curves)
result-type: IC50 (nM)
Note: unit nM is implicit; provide only the numeric part.

The reported IC50 of the molecule COc1ccc(C[C@@H](C)NC[C@H](O)c2ccc(O)c(N)c2)cc1 [(R,R)-Desformoterol] was 35.6

----------
# assayed-target: human β2-adrenergic receptor (Homo sapiens)
# test-name: binding to human β2-adrenergic receptor (competition curves)
# condition-label: ratio of IC50 values β1/β2
result-type: β1/β2 Selectivity
Just the number, please, no unit attached.

[
  {
    "compound": "COc1ccc(C[C@@H](C)NC[C@H](O)c2ccc(O)c(N)c2)cc1 (relative stereo) [(R,R)-/(S,S)-Racemate of Desformoterol]",
    "measurement": 63
  }
]

Next:
Entry COc1ccc(C[C@@H](C)NC[C@H](O)c2ccc(O)c(N)c2)cc1 [(R,R)-Desformoterol] : β1/β2 Selectivity on human β2-adrenergic receptor (Homo sapiens) = 89
